Measured values drawn from patent US4536592A for this set.

Procedure text: Diarrheogenic activity test (rat, intragastric, all or none diarrhea assessment)
Type: in vivo, Charles River rats
Details: in vivo, po, doses 100 to 3000 microgram/kg, read-out: Rat 8 hour Diarrheogenic ED50
Experimental: Diarrhea is an undesirable side effect commonly associated with prostaglandins. Groups of six adult male Charles River rats, weight range 180 to 200 grams are fasted for 24 hours prior to administering the test substance. […] Diarrhea is assessed at hourly intervals on an all or none basis for up to eight hours after administration of the prostaglandin. […] ED50 value is assessed for each hourly diarrheogenic response.
Measured parameter: TD50 at 8 h (mg/kg)
Field format: number, assumed mg/kg, no unit text.

Summary for this molecule, CCCCC(C)(O)C/C=C/[C@H]1[C@H](O)CC(=O)[C@@H]1CCCCCCC(=O)OC (relative stereo) : TD50 at 8 h is 0.366
